This collection of values is drawn from paper PMC3152597.

Entries and their pIC50
Tested on: nonresistant cancer cell lines
Protocol Notes: Antiproliferative activity, nonresistant cancer cell lines
Assay type: cell-based
Reported Conditions: Homo sapiens, read-out: potency on nonresistant cancer cell lines (range)
pIC50: −log10 of the molar value.

COc1cc(C(=O)c2c[nH]c(-c3ccc(Br)cc3)n2)cc(OC)c1OC | 7.10 to 7.30

Ask | Which value of pIC50 has been reported for COc1cc(C(=O)c2cn(C)c(-c3ccc(C)cc3)n2)cc(OC)c1OC in the records?
Reply | 7.10 to 7.30
